- Experimental details: resazurin metabolic signal in A549 cells – cell-based, resazurin fluorescence, 24 h, PK04 Diversity Set, profiling panel (AID 1171); note: test concentration not given here
- Cond: A549 viability, higher = more signal, called active from +8 up or from −8 down
Reported property: z-score
# answer = number (no unit)

Use the examples below as a reference point.
Compound | z-score
CN(C)CCCC[C@@H]1NC(=O)[C@@H]2C[C@H](C(=O)NCCCCCN)[C@H](c3ccc(O)cc3)N2C1=O | -0.475
COc1ccc([Si](C)(C)[C@@H]2[C@@H](CCO)O[C@]3(C(=O)N(Cc4cccc(N(C=O)c5ccccc5)c4)c4ccccc43)[C@H]2C)cc1 | -2.24
NC(=O)NCC#Cc1ccc2c(c1)[C@]1(C(=O)N2)[C@H](c2ccccc2OCCO)N2[C@H](c3ccccc3)[C@H](c3ccccc3)OC(=O)[C@H]2[C@@H]1C(=O)N1CCCCCCC1 | 0.414
CCCC[C@@H]1C[C@H]1[C@@H](NC(=O)c1ccccc1)c1ccccc1 | -0.324
O=C1C2C=CC(C(O)CCc3ccccc3)N(Nc3ccccc3)C2C(=O)N1c1ccccc1 (stereo unspecified) | -0.424
Oc1ccc2cc[n+](Cc3cccc(OC(F)(F)F)c3)cc2c1 | -1.81
COc1ccc(C(=O)Nc2cccc(CN3C(=O)[C@@]4(O[C@@H](CCn5cc([C@H](O)c6ccccc6)nn5)[C@H]([Si](C)(C)c5ccc(OC)cc5)[C@H]4C)c4ccccc43)c2)cc1 | -1.88
CC(C)[C@H]1COC(=O)N1C(=O)[C@H]1[C@@H](c2ccccc2)N(c2ccccc2)O[C@@H]1C | 1.72
CC(C)N1C(=O)c2ccccc2[C@](C)(C(=O)NC2CC2)[C@@H]1c1ccc(CO)cc1 | 0.688
COC(=O)c1c(CC[C@@H](CO)NC(=O)Nc2ncn[nH]2)oc(C(=O)Cc2ccccc2)c1C(=O)OC | 0.199

Lookup: Could you share which z-score value was measured for O=C1OCC=C[C@H]2OC34C=CCN(c5ccc(Cl)cc5)C(=O)[C@H]3N(CCCO)C(=O)[C@@H]4[C@@H]12 (stereo partly specified) ?
Found: -0.875

====

- Experimental details: blockers of DNA damage checkpoint Chk1 activation – imaging, HeLa, hydroxyurea, phospho-Chk1 antibody, percent positive cells, primary screen (AID 1186)
- Cond: hydroxyurea-induced phospho-Chk1 immunofluorescence imaging, higher = more signal
Reported property: z-score
# answer = number (no unit)

Lookup: Could you share which z-score value was measured for CCCC[C@@H]1C[C@H]1[C@@H](NC(=O)c1ccccc1)c1ccc(-c2ccccc2)cc1 ?
Found: -0.0528

====

- Experimental details: probe aInhba binding on compound microarray – biochemical, small-molecule microarray, 635/667 nm fluorescence, primary screen (AID 1148);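 note: score merges 667nm spot fluorescence with signal-to-noise for antibody binding to printed compounds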
- Cond: higher = more signal
Mark Fulfilled for reported composite z-score of 0.04 or greater; mark Not fulfilled for anything smaller.

Molecule | Label value
C=CCN1C(=O)[C@@]2(O[C@@H](CCO)[C@H]([Si](C)(C)c3ccc(OC)cc3)[C@H]2C)c2cc(N3C(=O)COc4ccccc43)ccc21 | Not fulfilled
C#C[C@H](O[Si](C#CCCCCCC)(C(C)C)C(C)C)c1ccccc1 | Not fulfilled
O=C1OCC=C[C@H]2OC34C=CCN(c5ccc(Cl)cc5)C(=O)[C@H]3N(CCCO)C(=O)[C@@H]4[C@@H]12 (stereo partly drawn) | Not fulfilled
O=C(CS)NCCCCCNC(=O)[C@H]1C[C@H]2C(=O)N[C@@H](Cc3ccccc3)C(=O)N2[C@H]1c1cccc(OCCO)c1 | Fulfilled
C=C(COC)C(=O)CC[C@@H](OC(=O)c1ccccc1-c1ccccc1C(=O)O)c1ccc(CO)o1 | Not fulfilled

Lookup: Could you tell me if the measured composite z-score of CN(C)CCCC[C@@H]1NC(=O)[C@@H]2C[C@H](C(=O)NCCCCCCN)[C@H](c3ccc(O)cc3)N2C1=O reaches 0.04 or more?
Found: Fulfilled

Lookup: Could you tell me if the measured composite z-score of CC1(C)C(=O)C(c2ccccc2)=C2CN3C(=O)N(CCc4ccccc4)C(=O)C3(Cc3ccccc3)C=C21 (stereo not drawn) reaches 0.04 or more?
Found: Fulfilled

Lookup: Could you tell me if the measured composite z-score of COCCCNC(=O)[C@@]1(Sc2ccc(C)cc2)CC(=O)N(Cc2ccccc2)[C@@H]1c1ccc(CO)cc1 reaches 0.04 or more?
Found: Not fulfilled

====

- Experimental details: growth modulation of vineyard yeast isolate – strain RM11-1a, OD600, basal, 24 h, primary screen (AID 1177);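 note: cultures grown under basal conditions with no added stressor; test concentration not given here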
- Cond: S. cerevisiae RM11-1a growth, OD600, 24 h; higher = more signal, called active from +8 up or from −8 down
Mark criterion met for reported z-score of -0.5 or greater; mark criterion not met for anything smaller.

Here are 2 compounds together with their reported answers.
Compound | Label value
O=C(CS)NCCCCCCNC(=O)[C@H]1C[C@H]2C(=O)N3CCC[C@H]3C(=O)N2[C@H]1c1ccc(O)cc1 | criterion met
O=C1OCCC=C[C@H]2OC34C=CCN(CCN5CCOCC5)C(=O)[C@H]3N(CCO)C(=O)[C@@H]4C12 (some centres not stated) | criterion met

Lookup: Could you tell me if the measured z-score of O=C(NCC(O)CO)[C@]1(CCS(=O)(=O)c2ccccc2)N=C(c2ccc(OCCCO)cc2)O[C@@H]1c1ccccc1 (some centres not stated) reaches -0.5 or more?
Found: criterion not met

Lookup: Could you tell me if the measured z-score of C=CCC(OC(C)=O)[C@@H]1[C@@H](N(Cc2ccc(-c3cccc(C(F)(F)F)c3)o2)C(=O)c2ccc(C)cc2)c2cc(OCCCO)ccc2N1C(=O)c1ccc2ccccc2n1 (some centres not stated) reaches -0.5 or more?
Found: criterion met

Lookup: Could you tell me if the measured z-score of C=CCC(OC(C)=O)[C@@H]1[C@@H](N(Cc2ccc(-c3cccc(C(F)(F)F)c3)o2)C(=O)Cc2ccc(OC)cc2)c2cc(OCCCO)ccc2N1C(=O)Cc1ccc(OC)cc1 (some centres not stated) reaches -0.5 or more?
Found: criterion not met

Lookup: Could you tell me if the measured z-score of CCOC1=C2C(c3ccc(C)cc3)N(S(=O)(=O)c3ccc(C)cc3)CC2n2c(=O)n(-c3ccccc3)c(=O)n2C1 (configuration not stated) reaches -0.5 or more?
Found: criterion met

Lookup: Could you tell me if the measured z-score of C[n+]1ccc2ccc(O)cc2c1 reaches -0.5 or more?
Found: criterion met

====

- Experimental details: budding yeast growth modifiers under rapamycin – strain BY4716, OD600, 96 h, primary screen (AID 1091); note: test concentration not given here
- Cond: S. cerevisiae BY4716 + rapamycin, higher = more signal, called active from +8 up or from −8 down
Reported property: z-score
# answer = number (no unit)

Use the examples below as a reference point.
Molecule | z-score
O=C1C2C=CC(C(O)c3cccc4ccccc34)N(n3cnnc3)C2C(=O)N1Cc1ccccc1 (configuration not stated) | -0.0039
O=C(NCC(O)CO)[C@]1(CCS(=O)(=O)c2ccccc2)N=C(c2ccc(OCCCO)cc2)O[C@@H]1c1ccccc1 (some centres not stated) | -0.92
CCCNC(=O)[C@@]1(C)c2ccccc2C(=O)N(Cc2cc(C(F)(F)F)cc(C(F)(F)F)c2)[C@H]1c1ccc(CO)cc1 | -0.49

Lookup: Could you share which z-score value was measured for COc1ccc([Si](C)(C)[C@@H]2[C@@H](CCO)O[C@]3(C(=O)N(Cc4cccc(N(C=O)c5ccccc5)c4)c4ccccc43)[C@H]2C)cc1 ?
Found: 9.98

Lookup: Could you share which z-score value was measured for C=CCN1C(=O)[C@@]2(O[C@@H](CCO)[C@H]([Si](C)(C)c3ccc(OC)cc3)[C@H]2C)c2cc(NC(C)=O)ccc21 ?
Found: -0.741

Lookup: Could you share which z-score value was measured for C=C(C(=O)CC[C@@H](OC(=O)c1cccnc1)c1ccc(CO)o1)C(C)C ?
Found: -0.0796

Lookup: Could you share which z-score value was measured for O=C1O[C@@H](c2ccccc2)[C@@H](c2ccccc2)N2[C@@H](c3ccc(O)cc3)[C@]3(C(=O)Nc4ccc(C#CCCO)cc43)[C@@H](C(=O)O)[C@H]12 ?
Found: -0.265

====

- Measurement target: Left-right determination factor 2 (Homo sapiens) (UniProt O00292)
- Sequence (O00292 whole entry, looked up): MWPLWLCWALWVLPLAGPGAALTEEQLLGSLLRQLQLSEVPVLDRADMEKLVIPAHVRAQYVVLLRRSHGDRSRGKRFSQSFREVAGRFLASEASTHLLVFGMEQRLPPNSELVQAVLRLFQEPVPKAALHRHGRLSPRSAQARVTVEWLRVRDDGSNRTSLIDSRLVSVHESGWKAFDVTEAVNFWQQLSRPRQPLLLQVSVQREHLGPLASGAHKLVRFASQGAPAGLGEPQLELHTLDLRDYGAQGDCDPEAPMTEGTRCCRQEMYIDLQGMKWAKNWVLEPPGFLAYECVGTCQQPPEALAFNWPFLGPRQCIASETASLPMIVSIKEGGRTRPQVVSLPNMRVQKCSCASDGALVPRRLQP
- Experimental details: small molecules binding LEFTY2 protein – biochemical, small-molecule microarray, 635 nm fluorescence scan, primary screen (AID 1110)
- Cond: higher = more signal
Class assignment keyed on composite z-score, ranges lower band = under -0.5, central band = from -0.5 up to 0.3, upper band = 0.3 and over

Compound | Label value
[N-]=[N+]=Nc1ccccc1[C@@H]1OC(c2ccc(OCCCO)cc2)=N[C@]1(CCS(=O)(=O)c1ccccc1)C(=O)N1CCCCC1 | central band
CC(C)C(O)C1C=CC2C(=O)N(C)C(=O)C2N1N1CCCCC1 (stereo not given) | central band
C=CC[C@]1(C(=O)NCCN2CCOCC2)N=C(c2ccc(OCCCO)cc2)O[C@H]1c1ccccc1N=[N+]=[N-] | central band

Lookup: Hi, small favor: classify C=C(COC)C(=O)CC[C@@H](OC(=O)c1ccccc1-c1ccccc1C(=O)O)c1ccc(CO)o1 by its composite z-score when you get a moment.
Found: upper band

Lookup: Hi, small favor: classify Cc1ccc(N2C(=O)c3ccccc3[C@@H](C(=O)NCC(C)C)[C@@H]2c2ccc(CO)cc2)nc1 by its composite z-score when you get a moment.
Found: lower band

Cited source for all entries: PubChem BioAssay
